# system under test: α4β7 integrin on human cells (human, UniProt P13612 34-1032; P26010 20-798)
# assay name: cell-based or functional assay
Numbered stars: 1 amine (or outer) side, 2 acyl side, 3 side chain; on linkers, the order of the positions; unused ones are H or OH. Bridge positions count the residues as written; N and C are the ends. Square brackets hold non-standard residues; d marks the D form. * marks the point of attachment. Phe(4-tBu) = CC(C)(C)c1ccc(C[C@H](N)C(=O)O)cc1; 2Nal = N[C@@H](Cc1ccc2ccccc2c1)C(=O)O; Diglycolyl = O=C(COCC(=O)[*:2])[*:1]; NMeR = CN[C@@H](CCCNC(=N)N)C(=O)O; Myristoyl = CCCCCCCCCCCCCC(=O)*; β3hE = N[C@@H](CCC(=O)O)CC(=O)O; Pen = CC(C)(S)[C@H](N)C(=O)O; dNMeK = CN[C@H](CCCCN)C(=O)O
Listing of entries alongside the reported α4β7 cell (Hu) IC50.
readout type: α4β7 cell (Hu) IC50

binder: Ac-[Pen][NMeR]SDTL[Pen][2Nal][dY][dK]-NH2 (disulfide 1-7 (inferred); also: homodimer via DIG) [SEQ ID NO 27]
readout type: α4β7 cell (Hu) IC50
recorded value: > 25 nM
//
binder: Ac-[Pen][NMeR]SDTL[Pen]WE(OMe)[dK]-NH2 (disulfide 1-7 (inferred); also: homodimer linked by DIG) [SEQ ID NO 86]
readout type: α4β7 cell (Hu) IC50
recorded value: ≤ 10 nM
//
binder: Ac-[Pen][NMeR]SDTL[Pen]W[dF][dK]-NH2 (disulfide 1-7 (inferred); also: homodimer linked by DIG) [SEQ ID NO 91]
readout type: α4β7 cell (Hu) IC50
recorded value: > 100 nM
//
binder: Ac-[Pen][NMeR]SDIL[Pen][Phe(4-tBu)][β3hE][dK]-NH2 (disulfide 1-7 (inferred); also: homodimer via IDA, Alexa-647 label on IDA) [SEQ ID NO 188]
readout type: α4β7 cell (Hu) IC50
recorded value: ≤ 10 nM
//
binder: Ac-[Pen][NMeR]SDTL[Pen][2Nal]E[dNMeK]-NH2 (disulfide 1-7 (inferred); also: homodimer via DIG linker) [SEQ ID NO 41]
readout type: α4β7 cell (Hu) IC50
recorded value: ≤ 10 nM
//
binder: Ac-[Pen][NMeR]SDTL[Pen][2Nal]E-NH2 (disulfide 1-7 (inferred)) [SEQ ID NO 75]
readout type: α4β7 cell (Hu) IC50
recorded value: > 50 nM
//
binder: Myristoyl-[Pen][NMeR]SDTL[Pen][Phe(4-tBu)][β3hE][dK]-NH2 (disulfide 1-7 (inferred)) [SEQ ID NO 181]
readout type: α4β7 cell (Hu) IC50
recorded value: > 1000 nM
//
binder: Ac-[Pen][NMeR]SDTL[Pen]W[dW][dK]-NH2 (disulfide 1-7 (inferred); also: dimer via DIG) [SEQ ID NO 110]
readout type: α4β7 cell (Hu) IC50
recorded value: > 10 nM
//
binder: Diglycolyl-C[NMeR]SDTLCW-NH2 (disulfide 1-7 (inferred); not fully specified; printed as DIG-NH2-C-(N-Me-R)-S-D-T-L-C-W-NH2) [SEQ ID NO 6]
readout type: α4β7 cell (Hu) IC50
recorded value: > 50 nM
